Answer each item with its documented IC50.
tested_target: human IL-17A (hIL-17A) (Homo sapiens, UniProt Q16552)
Sequence (Q16552 24-155): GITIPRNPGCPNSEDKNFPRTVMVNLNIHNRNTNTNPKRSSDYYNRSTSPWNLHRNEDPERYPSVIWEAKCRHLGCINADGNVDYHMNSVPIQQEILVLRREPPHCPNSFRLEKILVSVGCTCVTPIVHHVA
measurement_notes: IL-17A enzyme-linked immunosorbent assay (competitive ELISA, receptor-ligand binding)
Numbers only, in nM.

{"compound": "Cc1n[nH]c(C)c1-c1ccc(NC(=O)[C@@H](NC(=O)c2ccnn2C(C)C)C2c3ccc(F)c(F)c3OCC23CC3)cn1 (stereo partly shown)", "IC50 [nM]": 81}

Record IC50 per entry; entries follow.
1. Cc1n[nH]c(C)c1-c1ccc(NC(=O)[C@@H](NC(=O)c2nocc2C(C)C)C2c3ccc(F)cc3OCC23CC3)cn1 (stereo partly shown)
2. Cc1n[nH]c(C)c1-c1ccc(NC(=O)[C@@H](NC(=O)c2ccnn2C(C)C)C2c3c(F)cc(F)cc3OCC23CC3)cn1 (stereo partly shown)
3. Cc1n[nH]c(C)c1-c1ncc(NC(=O)[C@@H](NC(=O)c2ccnn2C)C2c3ccc(F)cc3CC23CC3)cc1F (stereo partly shown)
4. Cc1nonc1C(=O)N[C@H](C(=O)Nc1ccc(-c2c(C)n[nH]c2C)nc1)C1c2cc(F)ccc2OCC12CC2 (stereo partly shown)
5. COCc1[nH]nc(C)c1-c1ccc(NC(=O)[C@@H](NC(=O)c2nonc2C)C2c3ccc(F)c(F)c3OCC23CC3)cc1 (stereo partly shown)
6. Cc1n[nH]c(C)c1-c1ccc(NC(=O)[C@@H](NC(=O)c2conc2C2CC2)C2c3cc(F)c(F)cc3OCC23CC3)cc1 (stereo partly shown)
7. Cc1n[nH]c(C)c1-c1ccc(NC(=O)[C@@H](NC(=O)c2nonc2C(C)C)C2c3cc(F)cc(F)c3OCC23CC3)cn1 (stereo partly shown)
8. CCc1nonc1C(=O)N[C@H](C(=O)Nc1ccc(-c2c(C)n[nH]c2C)c(F)c1)C1c2ccc(F)cc2OCC12CC2 (stereo partly shown)

Result block:
[219, 222, 65, 190, 133, 222, 294, 276]

I have 4 compounds here; please give me IC50 for each one.
1. Cc1n[nH]c(C)c1-c1ncc(NC(=O)[C@@H](NC(=O)c2nonc2C2CC2)C2c3ccc(F)cc3OCC23CC3)cc1F (stereo partly shown)
2. CCc1nonc1C(=O)N[C@H](C(=O)Nc1ccc(-c2c(C)n[nH]c2C)nc1)C1c2cc(F)ccc2OCC12CC2 (stereo partly shown)
3. Cc1nonc1C(=O)N[C@H](C(=O)Nc1ccc(-c2c(C)n[nH]c2C)cc1)C1c2c(F)cccc2CC12CC2 (stereo partly shown)
4. Cc1n[nH]c(C)c1-c1ccc(NC(=O)[C@@H](NC(=O)OC2CC2)C2c3cc(F)c(F)cc3OCC23CC3)cn1 (stereo partly shown)

Result block:
1: 67; 2: 98; 3: 59; 4: 81

* * *

tested_target: hIL-17A (Homo sapiens)
Construct: purchased R&D 317-ILB
measurement_notes: Inhibition of hIL-17A-induced chemokine GROα/CXCL1 production in HT-29 cell
Assay type: cell-based
Procedure: Human colorectal adenocarcinoma cell HT-29 was inoculated to a 96-well plate (5×10^4 for per well), and incubated at 37° C. on an incubator overnight. […] A level of GROα in a cell culture supernatant was then detected using an ELISA kit for GROα (Cisbio, #62HCXC1peg). […]
Threshold 200 nM: IC50 strictly smaller gives Criterion met, otherwise Criterion not met.

{"compound": "CCc1nonc1C(=O)N[C@H](C(=O)Nc1ccc(-c2c(C)n[nH]c2C)cc1)C1c2cc(F)cc(F)c2OCC12CC2 (stereo partly shown)", "assigned_class": "Criterion not met"}
{"compound": "Cc1n[nH]c(C)c1-c1ccc(NC(=O)[C@@H](NC(=O)c2ccnn2C)C2c3ccc(F)cc3CC23CC3)cc1 (stereo partly shown)", "assigned_class": "Criterion met"}
{"compound": "Cc1n[nH]c(C)c1-c1ccc(NC(=O)[C@@H](NC(=O)C2(F)CC2)C2c3cc(F)c(F)cc3OCC23CC3)cc1 (stereo partly shown)", "assigned_class": "Criterion not met"}

Query block: Determine whether this compound shows IC50 lower than 200 nM (ties excluded): Cc1n[nH]c(C)c1-c1ccc(NC(=O)[C@@H](NC(=O)c2ccnn2C)C2c3cc(F)ccc3OCC23CC3)cc1 (stereo partly shown)
Result block: Criterion met

Query block: Say whether its IC50 is strictly beneath 200 nM. Entry: Cc1n[nH]c(C)c1-c1ccc(NC(=O)[C@@H](NC(=O)c2nocc2C(C)C)C2c3ccc(F)cc3OCC23CC3)cn1 (stereo partly shown)
Result block: Criterion met

Query block: Does the reported IC50 of Cc1n[nH]c(C)c1-c1ccc(NC(=O)[C@@H](NC(=O)c2ccnn2C(C)C)C2c3c(F)cc(F)cc3OCC23CC3)cn1 (stereo partly shown) stay below 200 nM?
Result block: Criterion not met

Query block: Find out if reported IC50 for Cc1n[nH]c(C)c1-c1ncc(NC(=O)[C@@H](NC(=O)c2ccnn2C)C2c3ccc(F)cc3CC23CC3)cc1F (stereo partly shown) is less than 200 nM
Result block: Criterion not met
